The measurements presented in this section are drawn from the supplement of paper PMC10307832.

System: NCI-H358
Test: relative viability (nuclei count vs DMSO), 5 days (fraction); higher = more cells survive
Details: first compound 0.0002 µM
observable: relative viability

* CC(=O)O[C@@]12CO[C@@H]1C[C@H](O)[C@@]1(C)C(=O)[C@H](O)C3=C(C)[C@@H](OC(=O)[C@H](O)[C@@H](NC(=O)OC(C)(C)C)c4ccccc4)C[C@@](O)([C@@H](OC(=O)c4ccccc4)[C@H]21)C3(C)C [Docetaxel] + CS(=O)(=O)N1CCN(Cc2cc3nc(-c4cccc5[nH]ncc45)nc(N4CCOCC4)c3s2)CC1 [Pictilisib] (partner 1 µM) | 0.321
* CC(=O)O[C@@]12CO[C@@H]1C[C@H](O)[C@@]1(C)C(=O)[C@H](O)C3=C(C)[C@@H](OC(=O)[C@H](O)[C@@H](NC(=O)OC(C)(C)C)c4ccccc4)C[C@@](O)([C@@H](OC(=O)c4ccccc4)[C@H]21)C3(C)C [Docetaxel] + C[C@@H](Oc1cc(-c2cnn(C3CCNCC3)c2)cnc1N)c1c(Cl)ccc(F)c1Cl [Crizotinib] (partner 1 µM) | 0.383
* CC(=O)O[C@@]12CO[C@@H]1C[C@H](O)[C@@]1(C)C(=O)[C@H](O)C3=C(C)[C@@H](OC(=O)[C@H](O)[C@@H](NC(=O)OC(C)(C)C)c4ccccc4)C[C@@](O)([C@@H](OC(=O)c4ccccc4)[C@H]21)C3(C)C [Docetaxel] + COc1cc2c(Oc3ccc(NC(=O)C4(C(=O)Nc5ccc(F)cc5)CC4)cc3F)ccnc2cc1OCCCN1CCOCC1 [Foretinib] (partner 0.25 µM) | 0.66

###

System: Calu-6
Test: relative viability (nuclei count vs DMSO), 5 days (fraction); higher = more cells survive
Settings: first compound 0.005 µM
Each entry below carries its recorded relative viability.
observable: relative viability

- COc1cc2nccc(Oc3ccc(NC(=O)Nc4cc(C)on4)c(Cl)c3)c2cc1OC [Tivozanib] + CS(=O)(=O)N1CCN(Cc2cc3nc(-c4cccc5[nH]ncc45)nc(N4CCOCC4)c3s2)CC1 [Pictilisib] (partner 1 µM): 0.969
- COc1cc2nccc(Oc3ccc(NC(=O)Nc4cc(C)on4)c(Cl)c3)c2cc1OC [Tivozanib] + CS(=O)(=O)CCNCc1ccc(-c2ccc3ncnc(Nc4ccc(OCc5cccc(F)c5)c(Cl)c4)c3c2)o1 [Lapatinib] (partner 2 µM): 1.01
- COc1cc2nccc(Oc3ccc(NC(=O)Nc4cc(C)on4)c(Cl)c3)c2cc1OC [Tivozanib] + C[C@@H](Oc1cc(-c2cnn(C3CCNCC3)c2)cnc1N)c1c(Cl)ccc(F)c1Cl [Crizotinib] (partner 1 µM): 0.778
- Nc1ccn([C@@H]2O[C@H](CO)[C@@H](O)[C@@H]2O)c(=O)n1 [Cytarabine] + CS(=O)(=O)N1CCN(Cc2cc3nc(-c4cccc5[nH]ncc45)nc(N4CCOCC4)c3s2)CC1 [Pictilisib] (partner 1 µM): 0.741

###

Test system: NCI-H23
Assay: relative viability (nuclei count vs DMSO), 5 days (fraction); higher = more cells survive
Settings: first compound 15.81 µM
Quick reference: relative viability of the listed items.
observable: relative viability

• O=C(O)CCCCC(CCSCc1ccccc1)SCc1ccccc1 (centres undefined) [CPI-613] + CC1(C)CCC(c2ccc(Cl)cc2)=C(CN2CCN(c3ccc(C(=O)NS(=O)(=O)c4ccc(N[C@H](CCN5CCOCC5)CSc5ccccc5)c(S(=O)(=O)C(F)(F)F)c4)cc3)CC2)C1 [Navitoclax] (partner 0.5 µM) = 0.711
• O=C(O)CCCCC(CCSCc1ccccc1)SCc1ccccc1 (centres undefined) [CPI-613] + COc1cc2c(Oc3ccc(NC(=O)C4(C(=O)Nc5ccc(F)cc5)CC4)cc3F)ccnc2cc1OCCCN1CCOCC1 [Foretinib] (partner 0.25 µM) = 0.917
• O=C(O)CCCCC(CCSCc1ccccc1)SCc1ccccc1 (centres undefined) [CPI-613] + CC(=O)c1c(C)c2cnc(Nc3ccc(N4CCNCC4)cn3)nc2n(C2CCCC2)c1=O [Palbociclib] (partner 0.5 µM) = 0.465
• O=C(O)CCCCC(CCSCc1ccccc1)SCc1ccccc1 (centres undefined) [CPI-613] + Nc1ncn([C@H]2C[C@H](O)[C@@H](CO)O2)c(=O)n1 [Decitabine] (partner 2 µM) = 0.321

###

System: NCI-H1395
Experiment: relative viability (nuclei count vs DMSO), 5 days (fraction); higher = more cells survive
Details: first compound 50 µM
observable: relative viability

- O=C(O)CCCCC(CCSCc1ccccc1)SCc1ccccc1 (centres undefined) [CPI-613] + O=C(CCCCCCC(=O)Nc1ccccc1)NO [Vorinostat] (partner 1 µM): 0.871
- O=C(O)CCCCC(CCSCc1ccccc1)SCc1ccccc1 (centres undefined) [CPI-613] + CCNC(=O)c1noc(-c2cc(C(C)C)c(O)cc2O)c1-c1ccc(CN2CCOCC2)cc1 [Luminespib] (partner 0.01 µM): 0.749
- O=C(O)CCCCC(CCSCc1ccccc1)SCc1ccccc1 (centres undefined) [CPI-613] + NC(=O)Nc1cc(-c2cccc(F)c2)sc1C(=O)N[C@H]1CCCNC1 [AZD7762] (partner 0.2 µM): 0.381
- O=C(O)CCCCC(CCSCc1ccccc1)SCc1ccccc1 (centres undefined) [CPI-613] + CC(=O)c1c(C)c2cnc(Nc3ccc(N4CCNCC4)cn3)nc2n(C2CCCC2)c1=O [Palbociclib] (partner 0.5 µM): 0.601

###

System: HCC-78
Assay: relative viability (nuclei count vs DMSO), 5 days (fraction); higher = more cells survive
Conditions: first compound 2.53 µM
observable: relative viability

* O=c1[nH]c2ccccc2n1C1CCN(CCCC(c2ccc(F)cc2)c2ccc(F)cc2)CC1 [Pimozide] + Cc1cc(Nc2cc(N3CCN(C)CC3)nc(Sc3ccc(NC(=O)C4CC4)cc3)n2)n[nH]1 [Tozasertib] (partner 0.1 µM) | 0.371
* Cc1cnc(-c2cnc(NCCNc3ccc(C#N)cn3)nc2-c2ccc(Cl)cc2Cl)[nH]1 + COc1cccc2cc(-c3nc([C@H]4CC[C@H](C(=O)O)CC4)n4ncnc(N)c34)[nH]c12 [OSI-027] (partner 0.5 µM) | 0.438
* Cc1cnc(-c2cnc(NCCNc3ccc(C#N)cn3)nc2-c2ccc(Cl)cc2Cl)[nH]1 + Nc1nc2[nH]cc(CCc3ccc(C(=O)N[C@@H](CCC(=O)O)C(=O)O)cc3)c2c(=O)[nH]1 [Pemetrexed] (partner 0.2 µM) | 0.938
* Cc1cnc(-c2cnc(NCCNc3ccc(C#N)cn3)nc2-c2ccc(Cl)cc2Cl)[nH]1 + CC(=O)Nc1cccc(-n2c(=O)n(C3CC3)c(=O)c3c(Nc4ccc(I)cc4F)n(C)c(=O)c(C)c32)c1 [Trametinib] (partner 0.02 µM) | 0.828

###

System: NCI-H322M
Experiment: relative viability (nuclei count vs DMSO), 5 days (fraction); higher = more cells survive
Conditions: first compound 0.05 µM
# relative viability annotations
observable: relative viability

- Nc1ccn([C@@H]2O[C@H](CO)[C@@H](O)[C@@H]2O)c(=O)n1 [Cytarabine] + CCNC(=O)c1noc(-c2cc(C(C)C)c(O)cc2O)c1-c1ccc(CN2CCOCC2)cc1 [Luminespib] (partner 0.01 µM): 0.514
- Nc1ccn([C@@H]2O[C@H](CO)[C@@H](O)[C@@H]2O)c(=O)n1 [Cytarabine] + CC(=O)Nc1cccc(-n2c(=O)n(C3CC3)c(=O)c3c(Nc4ccc(I)cc4F)n(C)c(=O)c(C)c32)c1 [Trametinib] (partner 0.02 µM): 0.441
- Nc1ccn([C@@H]2O[C@H](CO)[C@@H](O)[C@@H]2O)c(=O)n1 [Cytarabine] + Cc1cc(Nc2cc(N3CCN(C)CC3)nc(Sc3ccc(NC(=O)C4CC4)cc3)n2)n[nH]1 [Tozasertib] (partner 0.1 µM): 0.432
- COc1cc2nccc(Oc3ccc(NC(=O)Nc4cc(C)on4)c(Cl)c3)c2cc1OC [Tivozanib] + NC(=O)Nc1cc(-c2cccc(F)c2)sc1C(=O)N[C@H]1CCCNC1 [AZD7762] (partner 0.2 µM): 0.628
- Nc1ccn([C@@H]2O[C@H](CO)[C@@H](O)[C@@H]2O)c(=O)n1 [Cytarabine] + O=C(c1cc(Cc2n[nH]c(=O)c3ccccc23)ccc1F)N1CCN(C(=O)C2CC2)CC1 [Olaparib] (partner 8 µM): 0.467
- COc1cc2nccc(Oc3ccc(NC(=O)Nc4cc(C)on4)c(Cl)c3)c2cc1OC [Tivozanib] + COc1cccc2cc(-c3nc([C@H]4CC[C@H](C(=O)O)CC4)n4ncnc(N)c34)[nH]c12 [OSI-027] (partner 0.5 µM): 0.545
- COc1cc2nccc(Oc3ccc(NC(=O)Nc4cc(C)on4)c(Cl)c3)c2cc1OC [Tivozanib] + Cc1nc(NC(=O)N2CCC[C@H]2C(N)=O)sc1-c1ccnc(C(C)(C)C(F)(F)F)c1 [Alpelisib] (partner 2 µM): 0.767
- Nc1ccn([C@@H]2O[C@H](CO)[C@@H](O)[C@@H]2O)c(=O)n1 [Cytarabine] + Nc1nc2[nH]cc(CCc3ccc(C(=O)N[C@@H](CCC(=O)O)C(=O)O)cc3)c2c(=O)[nH]1 [Pemetrexed] (partner 0.2 µM): 0.572
- COc1cc2nccc(Oc3ccc(NC(=O)Nc4cc(C)on4)c(Cl)c3)c2cc1OC [Tivozanib] + N=C(N)NC(=N)NCCc1ccccc1 [Phenformin] (partner 250 µM): 0.776
